Just for reference, BindingDB's records for doi:10.1021/jm2004442 is where these values come from.

# Measurement target: RAC-alpha serine/threonine-protein kinase (Homo sapiens)
# Sequence (P31749 whole entry): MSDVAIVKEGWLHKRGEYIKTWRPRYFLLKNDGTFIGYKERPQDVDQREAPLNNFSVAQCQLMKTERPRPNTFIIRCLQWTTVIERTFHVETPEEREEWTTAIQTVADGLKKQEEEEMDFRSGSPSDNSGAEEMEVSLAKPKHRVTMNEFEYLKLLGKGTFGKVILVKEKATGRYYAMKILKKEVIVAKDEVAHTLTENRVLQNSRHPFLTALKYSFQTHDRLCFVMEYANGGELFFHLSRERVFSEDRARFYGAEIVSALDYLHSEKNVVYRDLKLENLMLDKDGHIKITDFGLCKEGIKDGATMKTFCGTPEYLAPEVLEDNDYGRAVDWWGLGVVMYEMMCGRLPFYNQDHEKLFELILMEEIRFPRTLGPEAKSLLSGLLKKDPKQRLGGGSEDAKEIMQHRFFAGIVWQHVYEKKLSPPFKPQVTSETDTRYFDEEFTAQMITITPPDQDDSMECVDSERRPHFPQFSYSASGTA
# Assay explanation: Inhibition of PI3K-mediated Akt phosphorylation at Ser 473 in human U87MG cells after 2 hrs by alphascreen assay
Measured endpoint: IC50 (nM)
Answers are plain numbers, in nM.

Example entries begin here.
{"columns": ["Test smiles", "Test value"],
 "data": [
  ["CC(=O)Nc1nc2ccc(-c3cnc(Cl)c(NS(=O)(=O)c4ccc(F)cc4)c3)cc2[nH]1", 335],
  ["O=S(=O)(Nc1cc(-c2ccc3nccn3c2)cnc1Cl)c1ccc(F)cc1", 574],
  ["Nc1nc2ccc(-c3cnc(Cl)c(NS(=O)(=O)c4ccc(F)cc4)c3)cc2o1", 101],
  ["CC(=O)Nc1cn2cc(-c3cnc(Cl)c(NS(=O)(=O)c4ccc(F)cc4)c3)ccc2n1", 118],
  ["Nc1cn2nc(-c3cnc(Cl)c(NS(=O)(=O)c4ccc(F)cc4)c3)ccc2n1", 415]
]}

Hey, can you go through the list below and give me IC50 for every item?
1. CC(=O)Nc1cn2nc(-c3cnc(Cl)c(NS(=O)(=O)c4ccc(F)cc4)c3)ccc2n1
2. CC(=O)Nc1nc2ccc(-c3cnc(Cl)c(NS(=O)(=O)c4ccc(F)cc4)c3)cc2o1

OUTPUT:
1. 13
2. 1100
